Measured values drawn from patent US20240343803A1 for this set.

Molecular target: T1, human PVRIG-his (AcroBiosystems, Cat NO. PVG-H52H4) (human, UniProt Q6DKI7 41-171, limits assumed)
T1 construct: treated as the same protein; also called human PVRIG-His protein; Human PVRIG-His, Acro C227P1-9ARF1-T4
T1 sequence (looked up): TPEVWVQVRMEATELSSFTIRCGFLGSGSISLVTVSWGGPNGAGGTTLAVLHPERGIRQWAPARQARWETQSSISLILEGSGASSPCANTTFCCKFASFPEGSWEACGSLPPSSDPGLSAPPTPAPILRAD
Assay: competition ELISA on coated human PVRIG-his; blocked ligand human PVRL2-mFc
MEASURED_METRIC: IC50 (read off the curve)

PVRIG-A105 (VHH, tested as VHH-hinge-CH2-CH3 (human IgG1-Fc); not shown: human IgG1 hinge-CH2-CH3) VHH: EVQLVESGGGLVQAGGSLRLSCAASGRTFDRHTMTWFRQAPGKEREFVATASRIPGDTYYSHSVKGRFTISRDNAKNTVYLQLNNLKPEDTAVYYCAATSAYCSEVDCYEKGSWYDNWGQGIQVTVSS	~0.9 nM
PVRIG-A30 (VHH, tested as VHH-hinge-CH2-CH3 (human IgG1-Fc); not shown: human IgG1 hinge-CH2-CH3) VHH: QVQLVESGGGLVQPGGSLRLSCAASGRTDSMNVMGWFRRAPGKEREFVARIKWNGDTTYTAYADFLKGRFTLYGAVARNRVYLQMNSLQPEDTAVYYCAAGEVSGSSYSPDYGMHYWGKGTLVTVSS	~2 nM
PVRIG-A11 (VHH, tested as VHH-hinge-CH2-CH3 (human IgG1-Fc); not shown: human IgG1 hinge-CH2-CH3) VHH: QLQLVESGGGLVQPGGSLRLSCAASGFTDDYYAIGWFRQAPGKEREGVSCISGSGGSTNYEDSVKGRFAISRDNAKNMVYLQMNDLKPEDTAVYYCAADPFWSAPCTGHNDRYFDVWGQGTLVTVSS	~0.8 nM
PVRIG-A50 (VHH, tested as VHH-hinge-CH2-CH3 (human IgG1-Fc); not shown: human IgG1 hinge-CH2-CH3) VHH: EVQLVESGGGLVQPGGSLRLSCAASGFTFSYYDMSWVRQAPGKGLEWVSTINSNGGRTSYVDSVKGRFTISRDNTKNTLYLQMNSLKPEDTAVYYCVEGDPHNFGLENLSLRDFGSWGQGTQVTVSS	~2 nM
PVRIG-A35 (VHH, tested as VHH-hinge-CH2-CH3 (human IgG1-Fc); not shown: human IgG1 hinge-CH2-CH3) VHH: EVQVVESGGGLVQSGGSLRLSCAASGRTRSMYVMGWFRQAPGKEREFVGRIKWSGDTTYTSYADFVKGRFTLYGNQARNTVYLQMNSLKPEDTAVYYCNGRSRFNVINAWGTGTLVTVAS	~1 nM
PVRIG-A117 (VHH, tested as VHH-hinge-CH2-CH3 (human IgG1-Fc); not shown: human IgG1 hinge-CH2-CH3) VHH: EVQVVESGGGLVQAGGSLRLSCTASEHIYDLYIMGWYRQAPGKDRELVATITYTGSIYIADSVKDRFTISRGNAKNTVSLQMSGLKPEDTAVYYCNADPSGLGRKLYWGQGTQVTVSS	~0.5 nM
PVRIG-A118 (VHH, tested as VHH-hinge-CH2-CH3 (human IgG1-Fc); not shown: human IgG1 hinge-CH2-CH3) VHH: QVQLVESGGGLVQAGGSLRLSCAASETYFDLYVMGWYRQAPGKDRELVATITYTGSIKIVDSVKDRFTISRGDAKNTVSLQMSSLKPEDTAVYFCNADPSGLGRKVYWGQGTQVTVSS	~0.6 nM

Req: Entry PVRIG-A43 (VHH, tested as VHH-hinge-CH2-CH3 (human IgG1-Fc); not shown: human IgG1 hinge-CH2-CH3) VHH: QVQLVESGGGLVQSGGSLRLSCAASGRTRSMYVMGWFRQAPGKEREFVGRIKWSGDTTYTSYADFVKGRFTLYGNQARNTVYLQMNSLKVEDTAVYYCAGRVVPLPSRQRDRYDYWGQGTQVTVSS has what IC50 (read off the curve)?
Resp: ~1 nM
